Recorded λfl values for a group of molecules are listed next.
ASSAY: Fluorescence maximum of the dye
Type: physicochemical
CONDITION DETAILS: solvent PBS pH 7.4
Marks after values point to notes of the source that are not given here.

// known answers, use as guide
// query λfl value for entry "CC[N+]1=c2cc3c(cc2C(CS(=O)(=O)O)=CC1(C)C)=C(c1n(C)cc[n+]1CCCCC(=O)O)c1cc2c(cc1C3(C)C)N(Cc1ccc(S(=O)(=O)O)cc1S(=O)(=O)O)C(C)(C)C=C2CS(=O)(=O)O"
776^b nm

Item under review: "CC1(C)C=C(CS(=O)(=O)O)c2cc3c(cc2=[N+]1CCCC(=O)O)Oc1cc2c(cc1N=3)CCCN2Cc1ccc(S(=O)(=O)O)cc1S(=O)(=O)O" . Reported λfl?
700^b nm

Request the reported λfl associated with "CN(CCCC(=O)O)C(=O)c1ccccc1-c1c2cc/c(=N/CCc3ccc(S(=O)(=O)O)cc3)cc-2oc2cc(NCCc3ccc(S(=O)(=O)O)cc3)ccc12"
559^b nm

Give the measured λfl of "CN(C)c1ccc2c(c1)C(C)(C)C1=C/C(=[N+](/C)Cc3ccc(S(=O)(=O)O)cc3S(=O)(=O)O)C=CC1=C2c1c(F)c(F)c(F)c(F)c1F" .
661^b nm

Which λfl reading was recorded for the molecule "CC1=CC(C)(C)N(Cc2ccc(S(=O)(=O)O)cc2)c2cc3c(cc21)C(c1n(C)cc[n+]1CCCCS(=O)(=O)O)=c1cc2c(cc1C3(C)C)=[N+](CCCC(=O)O)C(C)(C)C=C2C" ?
775^b nm

Sample "O=C(O)C1CCN(C(=O)c2ccccc2-c2c3cc(S(=O)(=O)O)/c(=N/Cc4ccc(S(=O)(=O)O)cc4S(=O)(=O)O)cc-3oc3cc(NCc4ccc(S(=O)(=O)O)cc4S(=O)(=O)O)c(S(=O)(=O)O)cc23)CC1" — what was its λfl?
550^b nm

Entry under review: "CC1(C)C=C(CS(=O)(=O)O)c2cc3c(cc2N1Cc1ccc(S(=O)(=O)O)cc1S(=O)(=O)O)Oc1cc2c(cc1=N3)C(CS(=O)(=O)O)=CC(C)(C)[N+]=2CCCC(=O)O" . Reported λfl?
718^b nm

Query (molecule): Cn1cc[n+](CCCC(=O)O)c1C1=c2cc3c(cc2[Si](C)(C)c2cc4c(cc21)C(CS(=O)(=O)O)CC(C)(C)N4Cc1ccc(S(=O)(=O)O)cc1S(=O)(=O)O)=[N+](Cc1ccc(S(=O)(=O)O)cc1S(=O)(=O)O)C(C)(C)CC3CS(=O)(=O)O (stereo not shown) ; field requested: λfl
776^b nm

New cases:
Tell me the measured λfl of CN(C)c1ccc2c(c1)C(C)(C)c1cc3c(cc1=C2c1c(F)c(F)c(SCC(=O)O)c(F)c1F)C(CS(=O)(=O)O)CC(C)(C)[N+]=3Cc1ccc(S(=O)(=O)O)cc1S(=O)(=O)O (stereo not shown) , please.
693^b nm

Please look up its λfl: "CN(CCCC(=O)O)C(=O)c1ccccc1-c1c2cc/c(=N/CCc3ccc(S(=O)(=O)O)cc3S(=O)(=O)O)cc-2oc2cc(NCCc3ccc(S(=O)(=O)O)cc3S(=O)(=O)O)ccc12"
561^b nm

What value of measured λfl is listed for "Cc1cc(=O)[nH]c2cc(NCS(=O)(=O)O)ccc12" ?
413 nm

Using the record for "CN(CCCC(=O)O)C(=O)c1ccccc1-c1c2cc(S(=O)(=O)O)/c(=N/CCc3ccc(S(=O)(=O)O)cc3)cc-2oc2cc(NCCc3ccc(S(=O)(=O)O)cc3)ccc12" , report its λfl.
558^b nm

Can you share its λfl? I mean this molecule: "CC1(C)c2cc3c(cc2N=c2cc4c(cc21)=[N+](CCCC(=O)O)C(C)(C)C=C4CS(=O)(=O)O)CCCN3Cc1ccc(S(=O)(=O)O)cc1S(=O)(=O)O"
761^b nm

Would you kindly share the measured λfl for "CC1(C)C=C(CS(=O)(=O)O)c2cc3c(cc2N1Cc1ccc(S(=O)(=O)O)cc1S(=O)(=O)O)[Si](C)(C)c1cc2c(cc1=C3c1cc(C(=O)O)ccc1C(=O)O)C(CS(=O)(=O)O)=CC(C)(C)[N+]=2Cc1ccc(S(=O)(=O)O)cc1S(=O)(=O)O" ?
740^b nm

Quick check: λfl of CC1(C)c2cc3c(cc2C(c2c(F)c(F)c(SCC(=O)O)c(F)c2F)=c2cc4c(cc21)=[N+](Cc1ccc(S(=O)(=O)O)cc1S(=O)(=O)O)C(C)(C)CC4CS(=O)(=O)O)C(CS(=O)(=O)O)=CC(C)(C)N3Cc1ccc(S(=O)(=O)O)cc1S(=O)(=O)O (stereo not shown) ?
720^b nm

Suppose we examine the molecule CC1(C)CC(CS(=O)(=O)O)c2cc3c(cc2=[N+]1CCCC(=O)O)Oc1cc2c(cc1N=3)CCCN2Cc1ccc(S(=O)(=O)O)cc1S(=O)(=O)O (stereo not shown) ; what λfl value has been reported?
682^b nm

Using the record for CC1(C)c2cc3c(cc2N=c2cc4c(cc21)=[N+](CCCC(=O)O)C(C)(C)CC4CS(=O)(=O)O)CCCN3Cc1ccc(S(=O)(=O)O)cc1S(=O)(=O)O (stereo not shown) , report its λfl.
742^b nm

Which λfl value belongs to "CC1(C)c2c(cc3c4c2CCCN4CCC3)C(c2c(F)c(F)c(SCC(=O)O)c(F)c2F)=c2cc3c(cc21)=[N+](Cc1ccc(S(=O)(=O)O)cc1S(=O)(=O)O)CCC3" ?
677^b nm

Looking for the measured λfl of "Cn1cc[n+](CCCCS(=O)(=O)O)c1C1=c2cc3c(cc2C(C)(C)c2cc4c(cc21)C(CS(=O)(=O)O)=CC(C)(C)N4Cc1ccc(S(=O)(=O)O)cc1S(=O)(=O)O)=[N+](CCCC(=O)O)C(C)(C)C=C3CS(=O)(=O)O" , can you help?
775^b nm
